These measurements were taken from the supplement of paper PMC9112550.

Tested on: Escherichia coli TOP10
Assay: shrunken log2 fold change of peptide-encoding DNA abundance (4.5 h post-induction vs induction); higher = less antimicrobial activity (less host growth inhibition)
Conditions: time post-induction: 4.5 h; library: site-saturation at positions 5, 18, 19, 20
Think of -0.1 as a floor: if shrunken log2 fold change stands on it or above, it is Met; beneath it, Not met.

Kindly determine if shrunken log2 fold change recorded for RRIRIRPPRLPRPRPRPKREPRP is above or exactly -0.1.
Met

Kindly determine if shrunken log2 fold change recorded for RRIRHRPPRLPRPRPRPLGNPRP is above or exactly -0.1.
Met

Kindly determine if shrunken log2 fold change recorded for RRIRLRPPRLPRPRPRPYAMPRP is above or exactly -0.1.
Not met

Kindly determine if shrunken log2 fold change recorded for RRIRPRPPRLPRPRPRPWMDPRP is above or exactly -0.1.
Not met

###

Test system: Escherichia coli TOP10
Test: shrunken log2 fold change of peptide-encoding DNA abundance (4.5 h post-induction vs induction); higher = less antimicrobial activity (less host growth inhibition)
Settings: time post-induction: 4.5 h; library: site-saturation at positions 5, 18, 19, 20
Exercise: for every item that follows, state its recorded shrunken log2 fold change.
Numbers only.

RRIRHRPPRLPRPRPRPEVIPRP 0.0357
RRIRYRPPRLPRPRPRPFEWPRP 0.0273
RRIRFRPPRLPRPRPRPRINPRP -0.314
RRIRNRPPRLPRPRPRPLTCPRP -0.149
RRIRDRPPRLPRPRPRPTAMPRP 0.858

List the reported shrunken log2 fold change of each sequence below.
1. RRIRFRPPRLPRPRPRPDWLPRP
2. RRIRFRPPRLPRPRPRPVTPPRP
3. RRIRYRPPRLPRPRPRPAVPPRP
4. RRIRFRPPRLPRPRPRPCISPRP
5. RRIRRRPPRLPRPRPRPGTFPRP

-0.0152
0.241
-0.625
-0.068
-0.578

List the reported shrunken log2 fold change of each sequence below.
1. RRIRGRPPRLPRPRPRPPISPRP
2. RRIRTRPPRLPRPRPRPGEDPRP
3. RRIRMRPPRLPRPRPRPNQSPRP
4. RRIRKRPPRLPRPRPRPTPLPRP
5. RRIRERPPRLPRPRPRPSHHPRP

1: 0.163; 2: 0.109; 3: 0.176; 4: 0.848; 5: -0.73

###

Test system: Escherichia coli TOP10
Assay: shrunken log2 fold change of peptide-encoding DNA abundance (4.5 h post-induction vs induction); higher = less antimicrobial activity (less host growth inhibition)
Conditions: time post-induction: 4.5 h; library: site-saturation at positions 5, 18, 19, 20
measured_attribute: shrunken log2 fold change

RRIRTRPPRLPRPRPRPNGVPRP -0.0427
RRIRVRPPRLPRPRPRPVWPPRP 0.257
RRIRDRPPRLPRPRPRPCPSPRP 0.114
RRIRKRPPRLPRPRPRPKCKPRP 0.545
RRIRMRPPRLPRPRPRPWHVPRP -0.0444

List the reported shrunken log2 fold change of each sequence below.
1. RRIRKRPPRLPRPRPRPLQSPRP
2. RRIRLRPPRLPRPRPRPQHPPRP
3. RRIRSRPPRLPRPRPRPMCSPRP

[0.295, -0.132, -0.0814]

###

System: Escherichia coli TOP10
Assay: shrunken log2 fold change of peptide-encoding DNA abundance (4.5 h post-induction vs induction); higher = less antimicrobial activity (less host growth inhibition)
Conditions: time post-induction: 4.5 h; library: site-saturation at positions 5, 18, 19, 20
measured_attribute: shrunken log2 fold change
One number for each entry.

List the reported shrunken log2 fold change of each sequence below.
1. RRIRIRPPRLPRPRPRPTQSPRP
2. RRIRERPPRLPRPRPRPQSYPRP
3. RRIRPRPPRLPRPRPRPRPKPRP
4. RRIRRRPPRLPRPRPRPYGYPRP
5. RRIRRRPPRLPRPRPRPLSNPRP
6. RRIRWRPPRLPRPRPRPFAGPRP

1. 0.575
2. -0.0192
3. 3.22
4. 0.0179
5. -0.0853
6. 0.0847

List the reported shrunken log2 fold change of each sequence below.
1. RRIRYRPPRLPRPRPRPHQDPRP
2. RRIRHRPPRLPRPRPRPAGGPRP

1. -0.0582
2. -0.131

###

Exercise: for every item that follows, state its recorded shrunken log2 fold change.
Tested on: Escherichia coli TOP10
Experiment: shrunken log2 fold change of peptide-encoding DNA abundance (4.5 h post-induction vs induction); higher = less antimicrobial activity (less host growth inhibition)
Settings: time post-induction: 4.5 h; library: site-saturation at positions 5, 18, 19, 20
Numbers only.

RRIRDRPPRLPRPRPRPAQPPRP 0.278
RRIRNRPPRLPRPRPRPIPRPRP 0.0496
RRIRWRPPRLPRPRPRPAVSPRP 0.127
RRIRRRPPRLPRPRPRPLGTPRP 0.547

List the reported shrunken log2 fold change of each sequence below.
1. RRIRYRPPRLPRPRPRPMCGPRP
2. RRIRMRPPRLPRPRPRPSFFPRP
3. RRIRGRPPRLPRPRPRPGQLPRP
4. RRIRNRPPRLPRPRPRPAQEPRP

[-0.17, 0.0666, 0.178, 0.0303]

List the reported shrunken log2 fold change of each sequence below.
1. RRIRRRPPRLPRPRPRPIGYPRP
2. RRIRLRPPRLPRPRPRPHMHPRP
3. RRIRTRPPRLPRPRPRPYEMPRP
4. RRIRERPPRLPRPRPRPILEPRP
5. RRIRIRPPRLPRPRPRPLAQPRP

[0.0143, -0.578, -0.482, -0.0533, -0.116]

List the reported shrunken log2 fold change of each sequence below.
1. RRIRNRPPRLPRPRPRPDAPPRP
2. RRIRDRPPRLPRPRPRPIKLPRP

0.185
-0.213

###

Test system: Escherichia coli TOP10
Assay: shrunken log2 fold change of peptide-encoding DNA abundance (4.5 h post-induction vs induction); higher = less antimicrobial activity (less host growth inhibition)
Conditions: time post-induction: 4.5 h; library: site-saturation at positions 5, 18, 19, 20
Exercise: for every item that follows, state its recorded shrunken log2 fold change.
Give bare numbers.

RRIRLRPPRLPRPRPRPMHPPRP -0.0318
RRIRERPPRLPRPRPRPCLNPRP -0.267
RRIRARPPRLPRPRPRPCPVPRP 0.0768
RRIRWRPPRLPRPRPRPSNIPRP -0.699
RRIRFRPPRLPRPRPRPEDEPRP 0.0432

List the reported shrunken log2 fold change of each sequence below.
1. RRIRNRPPRLPRPRPRPTKQPRP
2. RRIRCRPPRLPRPRPRPWSQPRP
3. RRIRHRPPRLPRPRPRPPWEPRP
4. RRIRDRPPRLPRPRPRPKAQPRP
5. RRIRTRPPRLPRPRPRPMQQPRP
6. RRIRYRPPRLPRPRPRPVHNPRP
7. RRIRLRPPRLPRPRPRPMGMPRP
8. RRIRHRPPRLPRPRPRPIIHPRP

1. -0.102
2. -0.0595
3. 0.193
4. -0.1
5. 0.065
6. -0.353
7. 0.0771
8. 0.142

List the reported shrunken log2 fold change of each sequence below.
1. RRIRRRPPRLPRPRPRPCTVPRP
2. RRIRKRPPRLPRPRPRPCPPPRP

[-0.0302, 0.0811]

###

System: Escherichia coli TOP10
Assay: shrunken log2 fold change of peptide-encoding DNA abundance (4.5 h post-induction vs induction); higher = less antimicrobial activity (less host growth inhibition)
Conditions: time post-induction: 4.5 h; library: site-saturation at positions 5, 18, 19, 20
Exercise: for every item that follows, state its recorded shrunken log2 fold change.

These recorded examples may help you get a feel for the data.
RRIRPRPPRLPRPRPRPIYTPRP -0.245
RRIRDRPPRLPRPRPRPRHVPRP 0.153
RRIRSRPPRLPRPRPRPHGMPRP -0.21
RRIRDRPPRLPRPRPRPCMFPRP -0.00227
RRIRSRPPRLPRPRPRPHSIPRP -0.248

List the reported shrunken log2 fold change of each sequence below.
1. RRIRPRPPRLPRPRPRPPHWPRP
2. RRIRSRPPRLPRPRPRPEINPRP
3. RRIRQRPPRLPRPRPRPKPYPRP
4. RRIRARPPRLPRPRPRPPCIPRP
5. RRIRFRPPRLPRPRPRPSKWPRP
6. RRIRMRPPRLPRPRPRPCCVPRP
7. RRIRERPPRLPRPRPRPLHRPRP

1: 0.865; 2: 0.0112; 3: -0.074; 4: -0.111; 5: -0.273; 6: 0.166; 7: -0.0862

###

Test system: Escherichia coli TOP10;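 further: peptides expressed intracellularly from a pBAD plasmid library in pooled LB shake-flask culture, induced with 0.3% L-arabinose, DNA abundance read by NGS, three biological replicates, DESeq2 with apeglm shrinkage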
Test: shrunken log2 fold change of peptide-encoding DNA abundance (4.5 h post-induction vs induction); higher = less antimicrobial activity (less host growth inhibition)
Conditions: time post-induction: 4.5 h; library: site-saturation at positions 5, 18, 19, 20
measured_attribute: shrunken log2 fold change

List the reported shrunken log2 fold change of each sequence below.
1. RRIRSRPPRLPRPRPRPYYYPRP
2. RRIRTRPPRLPRPRPRPGAHPRP
3. RRIRRRPPRLPRPRPRPVYWPRP
4. RRIRMRPPRLPRPRPRPNPEPRP
5. RRIRTRPPRLPRPRPRPWSYPRP
6. RRIRQRPPRLPRPRPRPRVMPRP
7. RRIRGRPPRLPRPRPRPDHWPRP
8. RRIRRRPPRLPRPRPRPWCSPRP

1. -0.507
2. 0.0457
3. 0.303
4. 0.406
5. -1.86
6. -0.139
7. 0.186
8. -0.0123

List the reported shrunken log2 fold change of each sequence below.
1. RRIRKRPPRLPRPRPRPVSYPRP
2. RRIRFRPPRLPRPRPRPYHYPRP
3. RRIRQRPPRLPRPRPRPPYQPRP

[-0.227, -0.521, -0.216]
